Would you mind telling me the reported IC50 of each entry?
tgt: human recombinant HDAC1 (Homo sapiens)
Construct: purchased Enzo Life Science, Inc. BML-SE456
Sequence (Q13547 whole entry): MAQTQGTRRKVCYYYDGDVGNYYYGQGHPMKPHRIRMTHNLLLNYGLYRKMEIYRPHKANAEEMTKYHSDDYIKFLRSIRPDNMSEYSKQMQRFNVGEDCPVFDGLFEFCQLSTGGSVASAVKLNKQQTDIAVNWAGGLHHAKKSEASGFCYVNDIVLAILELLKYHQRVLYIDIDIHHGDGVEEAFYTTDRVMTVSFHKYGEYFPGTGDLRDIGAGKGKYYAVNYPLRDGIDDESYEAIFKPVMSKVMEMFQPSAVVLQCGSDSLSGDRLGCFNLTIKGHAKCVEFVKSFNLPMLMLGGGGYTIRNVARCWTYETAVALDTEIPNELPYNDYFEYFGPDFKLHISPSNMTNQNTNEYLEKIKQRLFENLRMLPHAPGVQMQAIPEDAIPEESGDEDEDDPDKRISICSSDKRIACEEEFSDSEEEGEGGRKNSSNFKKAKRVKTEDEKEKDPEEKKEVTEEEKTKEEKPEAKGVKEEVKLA
assay.name: HDAC1 enzyme activity inhibition (HDAC Fluorimetric Drug Discovery Kit)
Type: biochemical
experimental.context: human recombinant HDAC1; IC50 calculated with GraphPad Prism; read-out: HDAC1

Answer for every listed entry: what is its IC50? The entries follow.
1. FC(F)c1cccc(-c2cn(Cc3ccc(-c4nnc(C(F)F)o4)cc3)nn2)c1 [Compound 4487]
2. C[C@@H]1CN(c2cccc(-c3cn(Cc4ccc(-c5nnc(C(F)F)o5)cc4F)nn3)c2)C[C@H](C)N1C [Compound 4443]
3. CC(C)N1CCc2ccc(-c3cn(Cc4ccc(-c5nnc(C(F)F)o5)cc4F)nn3)cc2C1 [Compound 4365]
4. FC(F)c1nnc(-c2ccc(Cn3cc([C@@H]4CCCN4C4COC4)nn3)nc2)o1 [Compound 4026]
5. FC(F)c1nnc(-c2ccc(Cn3cc(-c4cccc(NC5CCCCC5)c4)nn3)nc2)o1 [Compound 3828]
6. CN1CCN(Cc2c[nH]c3cc(-c4cn(Cc5ccc(-c6nnc(C(F)F)o6)cn5)nn4)ccc23)CC1 [Compound 3986]
7. CC(C)N1CCN(c2cccc(-c3cn(Cc4ccc(-c5nnc(C(F)F)o5)cn4)nn3)c2)CC1 [Compound 4070]

Output:
1. > 50 µM
2. > 50 µM
3. > 50 µM
4. > 50 µM
5. > 50 µM
6. > 50 µM
7. > 50 µM

---

tgt: human recombinant HDAC6 (Homo sapiens, UniProt Q9UBN7)
Construct: purchased Calbiochem Inc. 382180
assay.name: HDAC6 enzyme activity inhibition (HDAC Fluorimetric Drug Discovery Kit)
Type: biochemical
experimental.context: HDAC1 IC50 / HDAC6 IC50
measured.endpoint: HDAC6 selectivity (fold)
One number for each entry, in fold.

# count of solved cases: 3
1) CC(C)(F)CN1CCC(c2cn(Cc3ccc(-c4nnc(C(F)F)o4)cn3)nn2)CC1	171
2) CCCc1cn(Cc2ccc(-c3nnc(C(F)F)o3)cn2)nn1	343
3) FC(F)c1nnc(-c2ccc(Cn3cc(-c4ccc5c(c4)CCN(C4COC4)C5)nn3)nc2)o1	868

// next item, HDAC6 selectivity (fold) requested
Form field HDAC6 selectivity (fold), entry FC(F)c1nnc(-c2ccc(Cn3cc(-c4ccccc4)cn3)nc2)o1 : 444

---

tgt: human recombinant HDAC6 (Homo sapiens, UniProt Q9UBN7)
Construct: purchased Calbiochem Inc. 382180
assay.name: HDAC6 enzyme activity inhibition (HDAC Fluorimetric Drug Discovery Kit)
Type: biochemical
experimental.context: HDAC1 IC50 / HDAC6 IC50
Would you mind labelling by HDAC6 selectivity (fold)? At or over 2000 fold is true, under is false.

1. CC(C)N1CCN(c2cc(-c3cn(Cc4ccc(-c5nnc(C(F)F)o5)cc4)nn3)ccc2F)CC1 [Compound 4421]	false
2. FC(F)c1nnc(-c2ccc(Cn3cc(-c4cncc(Br)c4)nn3)nc2)o1 [Compound 4182]	true
3. Fc1cccc(-c2cn(Cc3ccc(-c4nnc(C(F)F)o4)cn3)nn2)c1 [Compound 3854]	false
4. COC(=O)N1CC(c2cn(Cc3ccc(-c4nnc(C(F)F)o4)cn3)nn2)C1 [Compound 3959]	false
5. CN(C)Cc1c[nH]c2cc(-c3cn(Cc4ccc(-c5nnc(C(F)F)o5)cn4)nn3)ccc12 [Compound 3962]	true
6. FC(F)c1nnc(-c2ccc(Cn3cc(-c4ccc5cn[nH]c5c4)nn3)nc2)o1 [Compound 4340]	true

Input: Check if HDAC6 selectivity (fold) >= 2000 fold (inclusive). Item: CN(C)Cc1c(-c2ccccc2)nnn1Cc1ccc(-c2nnc(C(F)F)o2)cc1F [Compound 4491]
Output: false

Input: Reported HDAC6 selectivity (fold) reaches at least 2000 fold for O=C(O)c1cccc(-c2cn(Cc3ccc(-c4nnc(C(F)F)o4)cn3)nn2)c1 [Compound 3739] ?
Output: false

---

tgt: human recombinant HDAC6 (Homo sapiens, UniProt Q9UBN7)
Construct: purchased Calbiochem Inc. 382180
assay.name: HDAC6 enzyme activity inhibition (HDAC Fluorimetric Drug Discovery Kit)
Format: biochemical
experimental.context: human recombinant HDAC6; IC50 calculated with GraphPad Prism
Output 1.0 for records whose IC50 is lower than 100 nM, 0.0 for records at or above 100 nM.

Solved entries:
1) Fc1cc(-c2nnc(C(F)F)o2)ccc1Cn1cc(-c2cccc(CN3CCOCC3)c2)nn1	1.0
2) FC(F)c1nnc(-c2ccc(Cn3cc(-c4cccc5[nH]ncc45)nn3)nc2)o1	1.0
3) FC(F)c1nnc(-c2ccc(Cn3nnc(-c4cccs4)n3)nc2)o1	1.0
4) CC(C)N1CCN(c2cccc(-c3cn(Cc4ccc(-c5nnc(C(F)F)o5)cn4)nn3)c2)CC1	1.0
5) O=S1(=O)CCN(Cc2cccc(-c3cn(Cc4ccc(-c5nnc(C(F)F)o5)cc4)nn3)c2)CC1	0.0

Moving on to the next compound.
Input: Strictly below 100 nM: is that where IC50 of CN1CCN(Cc2c[nH]c3cc(-c4cn(Cc5ccc(-c6nnc(C(F)F)o6)cn5)nn4)ccc23)CC1 sits?
Output: 1.0

---

tgt: human recombinant HDAC6 (Homo sapiens, UniProt Q9UBN7)
Construct: purchased Calbiochem Inc. 382180
assay.name: HDAC6 enzyme activity inhibition (HDAC Fluorimetric Drug Discovery Kit)
Type: biochemical
experimental.context: HDAC1 IC50 / HDAC6 IC50
measured.endpoint: HDAC6 selectivity (fold)
Answers are plain numbers, in fold.

The examples below pair each entry with its known result.
1. FC(F)c1nnc(-c2ccc(Cn3cc(C4CCN(C5COC5)CC4)nn3)nc2)o1	253
2. CC(C)(C)OC(=O)Nc1cccc(-c2cn(Cc3ccc(-c4nnc(C(F)F)o4)cc3)nn2)c1	1096
3. CCCCN1CC(c2cn(Cc3ccc(-c4nnc(C(F)F)o4)cn3)nn2)C1	100

Switching to the query record.
HDAC6 selectivity (fold) in this record for CN1CCN(Cc2cccc(-c3cn(Cc4ccc(-c5nnc(C(F)F)o5)cc4)nn3)c2)CC1 : 627

---

Would you kindly list IC50 for each of these compounds?
tgt: human recombinant HDAC6 (Homo sapiens)
Construct: purchased Calbiochem Inc. 382180
Sequence (Q9UBN7 1-1215): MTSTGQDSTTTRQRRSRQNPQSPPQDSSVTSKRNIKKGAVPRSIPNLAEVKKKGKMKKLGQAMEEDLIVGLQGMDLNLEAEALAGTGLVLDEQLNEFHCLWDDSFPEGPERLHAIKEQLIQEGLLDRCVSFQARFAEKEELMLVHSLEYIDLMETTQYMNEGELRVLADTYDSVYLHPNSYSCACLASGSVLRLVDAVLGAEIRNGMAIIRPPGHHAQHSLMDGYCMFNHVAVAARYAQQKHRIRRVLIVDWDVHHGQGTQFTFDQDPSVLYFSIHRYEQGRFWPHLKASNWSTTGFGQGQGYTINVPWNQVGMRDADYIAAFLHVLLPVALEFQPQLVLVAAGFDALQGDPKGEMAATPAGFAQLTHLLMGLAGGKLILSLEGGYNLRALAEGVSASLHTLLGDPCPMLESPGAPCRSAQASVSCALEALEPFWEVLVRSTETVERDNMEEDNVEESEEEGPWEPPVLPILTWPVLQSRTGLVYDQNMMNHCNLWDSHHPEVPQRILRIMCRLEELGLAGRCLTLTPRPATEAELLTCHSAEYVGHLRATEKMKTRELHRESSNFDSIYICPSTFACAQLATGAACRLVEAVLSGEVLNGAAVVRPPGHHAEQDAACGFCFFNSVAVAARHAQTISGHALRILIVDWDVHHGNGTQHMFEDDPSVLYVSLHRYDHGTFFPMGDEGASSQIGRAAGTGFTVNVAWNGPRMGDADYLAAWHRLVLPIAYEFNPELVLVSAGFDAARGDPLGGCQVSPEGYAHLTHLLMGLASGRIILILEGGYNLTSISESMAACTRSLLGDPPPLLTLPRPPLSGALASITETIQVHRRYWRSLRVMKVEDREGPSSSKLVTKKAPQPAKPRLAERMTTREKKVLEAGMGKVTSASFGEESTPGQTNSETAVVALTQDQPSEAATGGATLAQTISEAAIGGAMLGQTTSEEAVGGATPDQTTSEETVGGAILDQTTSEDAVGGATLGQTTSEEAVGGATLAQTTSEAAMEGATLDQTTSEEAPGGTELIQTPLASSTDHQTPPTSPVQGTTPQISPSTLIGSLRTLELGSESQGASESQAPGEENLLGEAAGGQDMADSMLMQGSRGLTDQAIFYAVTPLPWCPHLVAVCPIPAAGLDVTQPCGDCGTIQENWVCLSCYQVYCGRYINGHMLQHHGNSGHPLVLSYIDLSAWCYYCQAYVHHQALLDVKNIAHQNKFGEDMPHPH
assay.name: HDAC6 enzyme activity inhibition (HDAC Fluorimetric Drug Discovery Kit)
Assay type: biochemical
experimental.context: human recombinant HDAC6; IC50 calculated with GraphPad Prism
Answers are plain numbers, in nM.

Example entries begin here.
1. CCN1CCN(c2ccc(F)c(-c3cn(Cc4ccc(-c5nnc(C(F)F)o5)cc4)nn3)c2)CC1 [Compound 4452]	20.3
2. FC(F)c1nnc(-c2ccc(Cn3cnc(Br)c3)nc2)o1 [Compound 3949]	112
3. FC(F)c1nnc(-c2ccc(Cn3cc(-c4ccc(Br)cn4)nn3)nc2)o1 [Compound 4180]	33.2
4. CN1CCc2cc(-c3cn(Cc4ccc(-c5nnc(C(F)F)o5)cc4F)nn3)ccc2C1 [Compound 4358]	33
5. Fc1cc(-c2cn(Cc3ccc(-c4nnc(C(F)F)o4)cn3)nn2)ccn1 [Compound 4185]	68.5

Working through the 3 compounds below one at a time, give IC50 for each.
1. CN(C)CCN(C)C(=O)c1cccc(-c2cn(Cc3ccc(-c4nnc(C(F)F)o4)cn3)nn2)c1 [Compound 4449]
2. Fc1cc(-c2nnc(C(F)F)o2)ccc1Cn1cc(-c2cccc(C3CN(C4COC4)C3)c2)nn1 [Compound 4462]
3. OC1(c2cn(Cc3ccc(-c4nnc(C(F)F)o4)cc3F)nn2)COC1 [Compound 4278]

Output:
13.3
92.5
311
